These measurements were taken from patent US20210041447A1.

Biological target: MAO B (Homo sapiens, UniProt P27338)
Construct: from tissue; host or cells: human brain homogenate without AD pathology
Assay: Binding affinity to MAO B in HC brain homogenate, [18F]fluoro deprenyl competition
Settings: human HC brain homogenate; 18F-fluoro deprenyl competition; read-out: IC50 in HC brain homogenate (MAO B)
Procedure: 20 μg of human brain homogenate (without AD pathology) was incubated with a dilution series of each test compound (1000 to 0.06 nM) in the presence of 800 Bq of ^18F-labeled MAO-B binder ([^18F]fluoro deprenyl). […] The imaging plate was analyzed after overnight exposition using a Fuji Film BAS-5000. Non-specific signal was determined with samples containing ^18F-labeled fluoro deprenyl in the presence of assay buffer without brain substrate and competitor. […]
pIC50: −log10 of the molar value.
Entries annotated with measured pIC50

[[record]]
given_smiles = "Fc1ccc(-c2ccc3c(n2)[nH]c2ccncc23)c(F)n1"
measured_metric = "pIC50"
measured = 6.41

[[record]]
given_smiles = "Fc1cc(-c2ccc3c(n2)[nH]c2ccncc23)c(F)cn1"
measured_metric = "pIC50"
measured = "< 6.00"

[[record]]
given_smiles = "Fc1nccc(-c2ccc3c(n2)[nH]c2ccncc23)c1F"
measured_metric = "pIC50"
measured = 6.19

[[record]]
given_smiles = "N#Cc1ccc(-c2ccc3c(n2)[nH]c2ccncc23)cc1F"
measured_metric = "pIC50"
measured = "< 6.00"


Problem: // returns reported pIC50 for input Fc1cnc(F)c(-c2ccc3c(n2)[nH]c2ccncc23)c1
Solution: < 6.00

Problem: // returns reported pIC50 for input Fc1cc(-c2ccc3c(n2)[nH]c2ccncc23)cc(F)n1
Solution: < 6.00

Problem: // returns reported pIC50 for input Fc1nccc(-c2ccc3c(n2)[nH]c2ccncc23)c1Cl
Solution: < 6.00

###

target: Tau (Homo sapiens); assay: Tau binding in AD brain homogenate, competition with 18F-labeled Tau binder; set-up: key to the marks not given beside the values; details: AD brain homogenate; non-radioactive fluorine-19 derivatives; for High affinity to Tau: key: −: poor; ∘: moderate; +: good; ++: very good; +++: excellent
Sequence (P10636 623-708 limits assumed): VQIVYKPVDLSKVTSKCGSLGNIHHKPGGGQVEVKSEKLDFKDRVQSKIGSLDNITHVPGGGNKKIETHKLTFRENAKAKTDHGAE
measured metric: High affinity to Tau

Illustrative cases are given below, each with its answer.
[[record]]
compound = "Fc1cnc(F)c(-c2ccc3c(n2)[nH]c2ccncc23)c1 [Example F-8]"
study_system = "Tau (Homo sapiens)"
measured_metric = "High affinity to Tau"
measured = "++"

[[record]]
compound = "N#Cc1cc(-c2ccc3c(n2)[nH]c2ccncc23)ccc1F [Example F-9a]"
study_system = "Tau (Homo sapiens)"
measured_metric = "High affinity to Tau"
measured = "+++"

[[record]]
compound = "Fc1nccc(-c2ccc3c(n2)[nH]c2ccncc23)c1F [Example F-3]"
study_system = "Tau (Homo sapiens)"
measured_metric = "High affinity to Tau"
measured = "+++"

[[record]]
compound = "N#Cc1ccc(-c2ccc3c(n2)[nH]c2ccncc23)cc1F [Example F-9]"
study_system = "Tau (Homo sapiens)"
measured_metric = "High affinity to Tau"
measured = "++"

[[record]]
compound = "Nc1cc(-c2ccc3c(n2)[nH]c2ccncc23)ccc1F [Example F-10]"
study_system = "Tau (Homo sapiens)"
measured_metric = "High affinity to Tau"
measured = "+++"

[[record]]
compound = "Fc1cc(-c2ccc3c(n2)[nH]c2ccncc23)cc(F)n1 [Example F-5]"
study_system = "Tau (Homo sapiens)"
measured_metric = "High affinity to Tau"
measured = "++"

[[record]]
compound = "Fc1nccc(-c2ccc3c(n2)[nH]c2ccncc23)c1Cl [Example F-4]"
study_system = "Tau (Homo sapiens)"
measured_metric = "High affinity to Tau"
measured = "++"

[[record]]
compound = "Fc1ccc(-c2ccc3c(n2)[nH]c2ccncc23)c(F)n1 [Example F-7]"
study_system = "Tau (Homo sapiens)"
measured_metric = "High affinity to Tau"
measured = "++"


Then there is this compound:
Problem: // returns reported High affinity to Tau for input Fc1cc(-c2ccc3c(n2)[nH]c2ccncc23)c(F)cn1 [Example F-6]
Solution: ++

###

Target: MAO B (Homo sapiens)
Construct: from tissue; host or cells: human brain homogenate without AD pathology
Sequence (P27338 1-520): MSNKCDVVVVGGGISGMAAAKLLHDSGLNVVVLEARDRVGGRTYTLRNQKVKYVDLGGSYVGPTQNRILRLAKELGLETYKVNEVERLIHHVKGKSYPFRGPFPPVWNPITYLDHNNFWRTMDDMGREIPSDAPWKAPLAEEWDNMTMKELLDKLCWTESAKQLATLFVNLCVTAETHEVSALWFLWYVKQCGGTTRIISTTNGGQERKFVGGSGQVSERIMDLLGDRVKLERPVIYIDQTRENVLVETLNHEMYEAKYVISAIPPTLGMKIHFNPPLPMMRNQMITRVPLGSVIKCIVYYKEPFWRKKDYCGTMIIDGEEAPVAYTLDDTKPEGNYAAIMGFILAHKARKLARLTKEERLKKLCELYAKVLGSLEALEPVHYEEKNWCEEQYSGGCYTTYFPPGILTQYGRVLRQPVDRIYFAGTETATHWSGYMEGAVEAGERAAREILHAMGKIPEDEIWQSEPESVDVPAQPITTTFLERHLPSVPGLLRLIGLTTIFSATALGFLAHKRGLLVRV
Test: Binding affinity to MAO B in HC brain homogenate, [18F]fluoro deprenyl competition
Conditions: read-out: IC50 in HC brain homogenate (MAO B); human HC brain homogenate; 18F-fluoro deprenyl competition
pIC50: −log10 of the molar value.
measured metric: pIC50

Problem: // returns reported pIC50 for input Nc1cc(-c2ccc3c(n2)[nH]c2ccncc23)ccc1F
Solution: < 6.00

###

target: MAO A (Homo sapiens, UniProt P21397); assay: Binding affinity to MAO A in human HC brain homogenate, [18F]fluoroethyl harmine competition; settings: human healthy control brain homogenate; 18F-FEH competition
Sequence (P21397 whole entry): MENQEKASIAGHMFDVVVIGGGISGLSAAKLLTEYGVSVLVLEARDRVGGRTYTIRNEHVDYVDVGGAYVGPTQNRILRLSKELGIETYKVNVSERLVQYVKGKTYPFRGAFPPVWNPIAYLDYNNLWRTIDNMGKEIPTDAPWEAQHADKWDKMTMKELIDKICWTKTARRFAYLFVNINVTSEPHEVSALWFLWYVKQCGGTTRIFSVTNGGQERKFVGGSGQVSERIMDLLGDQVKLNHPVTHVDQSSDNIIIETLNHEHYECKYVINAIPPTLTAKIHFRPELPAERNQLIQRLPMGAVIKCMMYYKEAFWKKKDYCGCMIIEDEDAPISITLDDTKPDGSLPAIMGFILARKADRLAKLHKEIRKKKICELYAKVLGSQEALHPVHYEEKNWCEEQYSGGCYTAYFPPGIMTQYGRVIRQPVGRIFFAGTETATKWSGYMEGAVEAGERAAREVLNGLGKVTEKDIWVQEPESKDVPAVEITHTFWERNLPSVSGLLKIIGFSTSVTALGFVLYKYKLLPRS
pIC50: −log10 of the molar value.
measured metric: pIC50

Illustrative cases are given below, each with its answer.
[[record]]
given_smiles = "Fc1cc(-c2ccc3c(n2)[nH]c2ccncc23)c(F)cn1"
measured = "< 6.00"

[[record]]
given_smiles = "N#Cc1ccc(-c2ccc3c(n2)[nH]c2ccncc23)cc1F"
measured = 6.48


Problem: Query for MAO A (Homo sapiens, UniProt P21397): what pIC50 does the record show for Fc1nccc(-c2ccc3c(n2)[nH]c2ccncc23)c1F ?
Solution: < 6.00

Problem: Query for MAO A (Homo sapiens, UniProt P21397): what pIC50 does the record show for Fc1cc(-c2ccc3c(n2)[nH]c2ccncc23)cc(F)n1 ?
Solution: < 6.00

Problem: Query for MAO A (Homo sapiens, UniProt P21397): what pIC50 does the record show for Fc1cnc(F)c(-c2ccc3c(n2)[nH]c2ccncc23)c1 ?
Solution: < 6.00

Problem: Query for MAO A (Homo sapiens, UniProt P21397): what pIC50 does the record show for Fc1ccc(-c2ccc3c(n2)[nH]c2ccncc23)c(F)n1 ?
Solution: 6.13

Problem: Query for MAO A (Homo sapiens, UniProt P21397): what pIC50 does the record show for Fc1nccc(-c2ccc3c(n2)[nH]c2ccncc23)c1Cl ?
Solution: < 6.00

Problem: Query for MAO A (Homo sapiens, UniProt P21397): what pIC50 does the record show for Nc1cc(-c2ccc3c(n2)[nH]c2ccncc23)ccc1F ?
Solution: 7.62

###

target: amyloid-beta (Homo sapiens, UniProt P05067); assay: Binding affinity to amyloid-beta in AD brain homogenate, competition with 18F-labeled beta-amyloid binder; details: read-out: IC50 in AD brain homogenate (amyloid-beta); human AD brain homogenate
Sequence (P05067 672-711 limits assumed): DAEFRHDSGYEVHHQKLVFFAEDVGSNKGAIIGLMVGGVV
measured metric: IC50
The reply should consist of the numeric value with the unit placed after it.

Problem: // returns reported IC50 for input Nc1cc(-c2ccc3c(n2)[nH]c2ccncc23)ccc1F
Solution: 680 nM

###

target: UniProtKB P10636
Entries annotated with measured IC50
Numbers only here, please. The scale is nM.

[[record]]
compound = "N#Cc1ccc(-c2ccc3c(n2)[nH]c2ccncc23)cc1F [Example F-9]"
output_unit = "nM"
measured = 13

[[record]]
compound = "Fc1cnc(F)c(-c2ccc3c(n2)[nH]c2ccncc23)c1 [Example F-8]"
output_unit = "nM"
measured = 9


Problem: Query for UniProtKB P10636: what IC50 does the record show for Fc1nccc(-c2ccc3c(n2)[nH]c2ccncc23)c1Cl [Example F-4] ?
Solution: 26

Problem: Query for UniProtKB P10636: what IC50 does the record show for Fc1cc(-c2ccc3c(n2)[nH]c2ccncc23)cc(F)n1 [Example F-5] ?
Solution: 29

###

target: MAO A (Homo sapiens, UniProt P21397); construct: from tissue; host or cells: human healthy control brain homogenate; assay: Binding affinity to MAO A in human HC brain homogenate, [18F]fluoroethyl harmine competition; settings: human healthy control brain homogenate; for Low affinity to MAO A (HC homogenate): key: −: poor; ∘: moderate; +: good; ++: very good; +++: excellent
measured metric: Low affinity to MAO A (HC homogenate)

Illustrative cases are given below, each with its answer.
[[record]]
given_smiles = "Fc1nccc(-c2ccc3c(n2)[nH]c2ccncc23)c1Cl"
measured = "+++"

[[record]]
given_smiles = "N#Cc1ccc(-c2ccc3c(n2)[nH]c2ccncc23)cc1F"
measured = "++"

[[record]]
given_smiles = "Nc1cc(-c2ccc3c(n2)[nH]c2ccncc23)ccc1F"
measured = "+"

[[record]]
given_smiles = "Fc1cc(-c2ccc3c(n2)[nH]c2ccncc23)c(F)cn1"
measured = "+++"

[[record]]
given_smiles = "Fc1cc(-c2ccc3c(n2)[nH]c2ccncc23)cc(F)n1"
measured = "+++"

[[record]]
given_smiles = "Fc1cnc(F)c(-c2ccc3c(n2)[nH]c2ccncc23)c1"
measured = "+++"

[[record]]
given_smiles = "Fc1nccc(-c2ccc3c(n2)[nH]c2ccncc23)c1F"
measured = "+++"


Then there is this compound:
Problem: Query for MAO A (Homo sapiens, UniProt P21397): what Low affinity to MAO A (HC homogenate) does the record show for Fc1ccc(-c2ccc3c(n2)[nH]c2ccncc23)c(F)n1 ?
Solution: +++
